Source listed as patent US20040053872.

target: HIV-1 RT reference (HIV-1 subtype B (clone BH10), UniProt P03366;P03366 P03366:600-1159,P03366:600-1039); assay: competition; BIC50, RT binding to primer; 33 C; conditions: two stem-loops (D and anticodon)
recorded_endpoint: pIC50
// pIC50: -log10(molar conc.)

What value of pIC50 has been recorded for this entry: GCUCAGUCGGUAGAGCAUCAGACUUUUAAUCUGAG (ssRNA) [compound 199] 8.70
